B1: OR4K15 (parent)
chain: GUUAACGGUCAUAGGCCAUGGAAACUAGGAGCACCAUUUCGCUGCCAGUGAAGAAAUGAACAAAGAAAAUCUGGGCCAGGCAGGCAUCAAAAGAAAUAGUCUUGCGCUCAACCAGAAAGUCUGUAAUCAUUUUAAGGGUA

Variants of: B1
Assay: self-cleavage, relative activity (ratio to wild type); higher = more cleavage; in vitro, sequencing; the parent is a self-cleaving ribozyme
measure.name: self-cleavage
Respond using a number only.

Answered cases to consult:
A11G C17A: 0.61
A78G U108C: 0.01
A24G G58U: 1.92
A55G C128A: 1.06
A62G U97C: 1.34

Prompt: Fill in the blank: the reported self-cleavage of C16U A117G is ____.
Completion: 1.84

Prompt: Fill in the blank: the reported self-cleavage of A68G U133C is ____.
Completion: 1.87

Prompt: Fill in the blank: the reported self-cleavage of A114G U132C is ____.
Completion: 0.24

Prompt: Fill in the blank: the reported self-cleavage of G8A C35U is ____.
Completion: 0.52

Prompt: Fill in the blank: the reported self-cleavage of A86G A134G is ____.
Completion: 1.25

Prompt: Fill in the blank: the reported self-cleavage of G48U U102C is ____.
Completion: 1.31

Prompt: Fill in the blank: the reported self-cleavage of A114G A118C is ____.
Completion: 0.11

Prompt: Fill in the blank: the reported self-cleavage of U43C A116U is ____.
Completion: 0.46

Prompt: Fill in the blank: the reported self-cleavage of A27G U38C is ____.
Completion: 1.12

Prompt: Fill in the blank: the reported self-cleavage of U39C G104A is ____.
Completion: 0.03

Prompt: Fill in the blank: the reported self-cleavage of A24C U120C is ____.
Completion: 1.13

Prompt: Fill in the blank: the reported self-cleavage of A11G C61G is ____.
Completion: 1

Prompt: Fill in the blank: the reported self-cleavage of A47G U139A is ____.
Completion: 1.4

Prompt: Fill in the blank: the reported self-cleavage of U39C U108C is ____.
Completion: 0.02

Prompt: Fill in the blank: the reported self-cleavage of A27G A94G is ____.
Completion: 1.48

Prompt: Fill in the blank: the reported self-cleavage of A30G A47U is ____.
Completion: 1.27

Prompt: Fill in the blank: the reported self-cleavage of A68G C101G is ____.
Completion: 0.08

Prompt: Fill in the blank: the reported self-cleavage of `U9G` is ____.
Completion: 0.92

Prompt: Fill in the blank: the reported self-cleavage of A47G A67G is ____.
Completion: 1.12

Prompt: Fill in the blank: the reported self-cleavage of A55U U132C is ____.
Completion: 2.21

Prompt: Fill in the blank: the reported self-cleavage of U57A U139A is ____.
Completion: 0.91

Prompt: Fill in the blank: the reported self-cleavage of U12C A64G is ____.
Completion: 0.41

Prompt: Fill in the blank: the reported self-cleavage of G7U A60U is ____.
Completion: 2.4

Prompt: Fill in the blank: the reported self-cleavage of G84A U108C is ____.
Completion: 0.01

Prompt: Fill in the blank: the reported self-cleavage of U2C A52G is ____.
Completion: 1.19

Prompt: Fill in the blank: the reported self-cleavage of A23G G65A is ____.
Completion: 0.71

Prompt: Fill in the blank: the reported self-cleavage of A4U A24G is ____.
Completion: 0.76
